Target: DGKα (Homo sapiens, UniProt P23743)
Sequence (P23743 whole entry): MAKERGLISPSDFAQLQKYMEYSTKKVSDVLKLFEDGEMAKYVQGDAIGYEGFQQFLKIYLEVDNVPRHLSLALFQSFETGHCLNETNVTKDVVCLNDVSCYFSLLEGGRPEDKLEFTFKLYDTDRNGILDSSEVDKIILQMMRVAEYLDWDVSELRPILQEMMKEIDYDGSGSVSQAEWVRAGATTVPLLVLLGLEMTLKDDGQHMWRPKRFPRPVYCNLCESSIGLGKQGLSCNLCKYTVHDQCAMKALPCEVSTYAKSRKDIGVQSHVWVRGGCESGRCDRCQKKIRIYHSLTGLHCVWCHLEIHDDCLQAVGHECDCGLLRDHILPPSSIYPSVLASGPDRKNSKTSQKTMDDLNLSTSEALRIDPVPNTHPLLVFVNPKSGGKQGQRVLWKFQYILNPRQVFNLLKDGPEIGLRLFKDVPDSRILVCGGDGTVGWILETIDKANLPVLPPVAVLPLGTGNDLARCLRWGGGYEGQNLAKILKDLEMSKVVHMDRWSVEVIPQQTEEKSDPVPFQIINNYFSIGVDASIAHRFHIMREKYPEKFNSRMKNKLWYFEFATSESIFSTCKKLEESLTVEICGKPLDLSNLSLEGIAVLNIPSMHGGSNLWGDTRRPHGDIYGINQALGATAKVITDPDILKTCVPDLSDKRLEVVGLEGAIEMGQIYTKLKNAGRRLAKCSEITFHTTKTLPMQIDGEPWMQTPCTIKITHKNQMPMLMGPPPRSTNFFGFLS
EXPERIMENTAL_READOUT: IC50 (nM)

The following molecules have reported results that may help.
CC[C@@H]1CN(c2c(F)c(=O)[nH]c3cn(CC#N)nc23)[C@@H](C)CN1C(C)c1ccc2nccnc2c1 (single isomer, unassigned) [Compound A194b] | 5090
CC[C@H]1CN(C(C)c2ccc(C(F)F)nc2)[C@H](CC)CN1c1cc(=O)n(C)c2cn(CC#N)nc12 (single isomer, unassigned) [Compound A351b] | 1190
CC[C@H]1CN(C(C)c2cccc(C)c2C(F)(F)F)[C@H](CC)CN1c1cc(=O)n(C)c2cn(CC#N)nc12 (single isomer, unassigned) [Compound A110a] | 1160

P: CC[C@H]1CN(C(C)c2ccc(C3CC3)cc2F)[C@H](CC)CN1c1cc(=O)n(C)c2cn(CC#N)nc12 (single isomer, unassigned) [Compound A72b]
Q: CC[C@H]1CN(C(C)c2ccc(C3CC3)cc2F)[C@H](CC)CN1c1cc(=O)n(C)c2cn(CC#N)nc12 (single isomer, unassigned) [Compound A72a]
R: CC(c1ccc2c(c1)OC(C)(C)CO2)N1C[C@H](C)N(c2cc(=O)n(C)c3cn(CC#N)nc23)C[C@H]1C (single isomer, unassigned) [Compound A46d]
S: CC(c1ccc2c(c1)OCC(C)(C)O2)N1C[C@H](C)N(c2cc(=O)n(C)c3cn(CC#N)nc23)C[C@H]1C (single isomer, unassigned) [Compound A46c]
T: CC[C@H]1CN(C2CCCc3ccccc32)[C@H](CC)CN1c1cc(=O)n(C)c2cn(CC#N)nc12 (single isomer, unassigned) [Compound A146a]
Q: Let's sort these by IC50, smallest first. Go ahead? Give the labels in the order specified.
Result: P, T, Q, S, R
(P: 83 nM, T: 440 nM, Q: 1200 nM, S: 3340 nM, R: 11400 nM)

---

Target: DGKζ (Homo sapiens)
Construct: His (N); TEV cleavage site (N)
Sequence (Q13574 1-929 isoform Q13574-4): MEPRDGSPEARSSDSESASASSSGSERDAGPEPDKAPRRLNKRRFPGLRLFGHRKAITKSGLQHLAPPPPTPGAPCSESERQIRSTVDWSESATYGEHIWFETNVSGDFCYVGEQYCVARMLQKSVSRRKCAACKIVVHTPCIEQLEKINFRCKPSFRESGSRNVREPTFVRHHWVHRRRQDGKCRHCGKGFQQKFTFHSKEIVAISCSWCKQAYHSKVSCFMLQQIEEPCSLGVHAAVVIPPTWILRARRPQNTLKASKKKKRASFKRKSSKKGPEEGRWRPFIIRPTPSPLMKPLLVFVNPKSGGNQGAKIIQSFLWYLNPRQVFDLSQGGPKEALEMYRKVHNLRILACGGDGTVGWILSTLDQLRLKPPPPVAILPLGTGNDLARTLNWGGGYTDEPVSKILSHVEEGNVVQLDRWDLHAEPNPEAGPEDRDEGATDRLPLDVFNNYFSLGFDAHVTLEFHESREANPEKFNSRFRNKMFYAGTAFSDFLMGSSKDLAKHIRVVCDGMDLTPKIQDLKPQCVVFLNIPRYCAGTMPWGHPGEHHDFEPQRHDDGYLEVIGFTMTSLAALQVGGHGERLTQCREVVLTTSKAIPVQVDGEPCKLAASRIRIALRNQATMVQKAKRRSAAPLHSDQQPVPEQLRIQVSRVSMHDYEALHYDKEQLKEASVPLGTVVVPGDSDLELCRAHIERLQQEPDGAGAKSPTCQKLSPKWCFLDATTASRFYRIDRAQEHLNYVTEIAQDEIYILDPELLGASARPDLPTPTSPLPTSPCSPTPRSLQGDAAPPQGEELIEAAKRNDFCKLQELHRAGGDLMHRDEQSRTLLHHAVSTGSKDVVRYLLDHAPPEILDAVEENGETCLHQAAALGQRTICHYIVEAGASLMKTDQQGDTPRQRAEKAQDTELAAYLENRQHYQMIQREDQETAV
Assay: Biochemical DGK IC50 assay, DGKζ ADP-Glo assay
Conditions: full length DGKζ 0.5 nM, ATP 140 μM, DAG 80 μM
pIC50: −log10 of the molar value.
EXPERIMENTAL_READOUT: pIC50

CC[C@H]1CN(C(C)c2ccc3nccnc3c2)[C@H](CC)CN1c1cc(=O)n(C(C)C)c2cn(CC#N)nc12 (single isomer, unassigned) [Compound A190a] | 6.76

1: CC[C@@H]1CN(c2cc(=O)n(C)c3cn(CC#N)nc23)[C@@H](C)CN1C(C)c1ccc(F)cc1C(F)(F)F (single isomer, unassigned) [Compound A218a]
2: CC#CCn1cc2c(n1)c(N1C[C@@H](CC)N(C(C)c3ccc(F)cc3C(F)(F)F)C[C@@H]1CC)cc(=O)n2C (single isomer, unassigned) [Compound A238a]
3: CC[C@H]1CN(C(C)c2cccc(C)c2C(F)(F)F)[C@H](CC)CN1c1cc(=O)n(C)c2cn(CC#N)nc12 (single isomer, unassigned) [Compound A110b]
4: CC[C@H]1CN(C2CCOc3ccccc32)[C@H](CC)CN1c1cc(=O)n(C)c2cn(CC#N)nc12 (single isomer, unassigned) [Compound A150b]
Q: Let's sort these by pIC50, smallest first. Go ahead? Give the labels in the order specified.
Result: 2, 3, 4, 1
